meta.source: PubChem BioAssay (NCI)

System: M14 melanoma
Experiment: NCI-60 one-dose screen, 48 h
Conditions: 10 µM
This is part of a sample that, as a whole, favours compounds with a hit. Of some 83,000 tested, about 20% had one in any assay. The source made the active and inactive calls. The calls were made as follows: active = growth percent below 10; inactive = the rest.
Returns: one label drawn from active, inactive

CCN1CCN(Cc2ccc(NC(=O)c3cccc(-n4cc(-c5ccc(NC(C)=O)nc5)nn4)c3)cc2C(F)(F)F)CC1 ... inactive
c1ccc(C(=C(c2ccc(OCCN3CCCCC3)cc2)c2ccc(OCCN3CCCCC3)cc2)C2CCCC2)cc1 ... active

**Query** Entry O=C(/C=C/Nc1ccc(F)cc1F)c1ccc2c(c1)Nc1ccccc1S2 : call = ?
**Result** inactive

**Query** Tell me the recorded outcome of this test for N#Cc1c(NC(=O)c2cccc(C(F)(F)F)c2)sc2c1CCC(O)=C2 .
**Result** inactive

**Query** Per the assay record, what outcome was assigned to COc1ccc(OC)c(-c2cc(-c3c[nH]c4ccccc34)nc(N)c2C#N)c1 ?
**Result** active

**Query** Recorded call for CCCn1c(=O)c2[nH]c(-c3ccc(OCc4nc5ccc(F)cc5[nH]4)cc3)nc2n(CCC)c1=O ?
**Result** inactive

**Query** Which outcome was entered for the compound CC(C)(C)Nc1nc2cc(Cl)c(Cl)cc2nc1S(C)(=O)=O in this test?
**Result** active

**Query** Look up the recorded call for CC(=O)Nc1ccc(-n2cnc3cc(-c4ccc(O)cc4)ccc32)cc1F in this test.
**Result** inactive

**Query** Could you please tell me the result logged for N#Cc1ccc(-c2nn(-c3ccc(C(=O)O)cc3)cc2CNc2cccc(Br)c2)cc1 in this assay?
**Result** inactive

**Query** What did the test return for O=C1NC(=NC2CCCCCC2)N/C1=C\c1ccc2ncoc2c1 ?
**Result** inactive

**Query** Called result for COc1ccc(-c2nc(Nc3ccccc3S(N)(=O)=O)c3ccccc3n2)cc1
**Result** inactive

**Query** Please let me know the test result on file for O=C1Nc2cc(-c3ccc(NC(=O)c4cccs4)cc3)ccc2/C1=C/c1ccc[nH]1 .
**Result** inactive

**Query** Which outcome was entered for the compound CN1CCN(c2ccc(C(=O)/C=C/c3cc(C(F)(F)F)ccc3Cl)cc2)CC1 in this test?
**Result** active

**Query** Dear all, I need the recorded test outcome for N#Cc1ccc(NC(=O)CSc2ccc(-c3ccc(Br)cc3)nn2)cc1 , thank you.
**Result** inactive

----------
Test system: SR leukemia
Experiment: NCI-60 one-dose screen, 48 h (100 = growth as untreated, 0 = no growth, -100 = all killed)
Settings: 10 µM
Compounds without any hit were thinned out: in the full panel of roughly 83,000, 20% have a hit.
growth listing for selected compounds.
Hi! Could you send only the number? It should be in %, unit omitted.

Below: 2 compounds and their reported growth.
O=C(CN1CCN(c2ncnc3c2cnn3-c2ccccc2)CC1)Nc1nncs1 ... -28.9
OCCNc1oc(-c2ccccc2)nc1[P+](c1ccccc1)(c1ccccc1)c1ccccc1 ... 1.42

Turning now to a further compound:
**Query** Endpoint output: growth of O=C(NO)c1ccc(Cn2ccc3c(NCc4ccccc4)ncnc32)cc1 . Value?
**Result** 12.7

----------
Recorded growth by entry
System: T-47D breast
Assay: NCI-60 one-dose screen, 48 h (100 = growth as untreated, 0 = no growth, -100 = all killed)
Conditions: 10 µM
Method: Growth inhibition of the T-47D human tumor cell line is measured as a screen for anti-cancer activity. Cells are grown in 96 well plates and exposed to the test compound for 48 hours. Compounds are tested at a single concentration, which is 10^-5 M for most compounds. The reported endpoint is percent growth (GI% or GIPRCNT), where numbers from 0 - 100% represent growth inhibition, and numbers from -100% - 0 represent cell death. For example, a value of 40 represents 60% growth inhibition. […]
Compounds without any hit were thinned out: in the full panel of roughly 83,000, 20% have a hit.
# number only, unit % dropped from output

Known growth results, listed for orientation:
CCCn1c(O)c(N=Nc2nc(-c3cc4ccccc4oc3=O)cs2)c2cc(Br)ccc21 ... 98.8
CC(=O)NCC1=C(C)C=C2C(=O)[C@](C)(O)C3(CC3)C(C)=C21 ... -11.8

**Query** For the compound shown here, COc1ccc(-c2ccc(SCC(=O)Nc3ccc(C#N)cc3)nn2)cc1 , give the reported growth.
**Result** 79.5

**Query** Suppose we examine the compound N#Cc1c(NC(=O)c2ccc(C(F)(F)F)c(Cl)c2)sc2c1CCC(=O)C2 ; what growth value has been reported?
**Result** -53

----------
Test system: NCI-H322M lung
Assay: NCI-60 one-dose screen, 48 h (100 = growth as untreated, 0 = no growth, -100 = all killed)
Details: 10 µM
Description: Growth inhibition of the NCI-H322M human Non-Small Cell Lung tumor cell line is measured as a screen for anti-cancer activity. Cells are grown in 96 well plates and exposed to the test compound for 48 hours. Compounds are tested at a single concentration, which is 10^-5 M for most compounds. The reported endpoint is percent growth (GI% or GIPRCNT), where numbers from 0 - 100% represent growth inhibition, and numbers from -100% - 0 represent cell death. […]
Compounds without any hit were thinned out: in the full panel of roughly 83,000, 20% have a hit.
Catalogue of growth values
Number only, in %; omit the unit.

Observe how each entry below is paired with its result.
O=C(CSc1nnc(-c2ccc3nc(-c4ccc(Cl)cc4)[nH]c3c2)o1)Nc1ccc(Br)cc1 ... -40.8
O=c1nc(-c2ccccc2)cc(-c2cc3ccccc3nc2Cl)[nH]1 ... 64.4
OCCCNc1oc(-c2ccccc2)nc1[P+](c1ccccc1)(c1ccccc1)c1ccccc1 ... 31.9
CC(=O)Nc1ccc(-n2cnc3cc(-c4ccc(NS(C)(=O)=O)cc4)ccc32)cc1 ... 59.1
CC1(c2ccccc2)NC(=O)N(CC(=O)Nc2ccc(C(=O)/C=C/c3ccccc3)cc2)C1=O (centres undefined) ... 90.2

**Query** # growth lookup, item NC(=Nc1ccc(OCCCCCCCCn2ccnn2)cc1)c1ccccc1
**Result** 60.3

**Query** What value of measured growth is listed for O=C(CNc1nc(-c2ccccc2)cs1)Nc1ccc(Cl)cc1[N+](=O)[O-] ?
**Result** 35.7

**Query** Consider the compound COc1cc(OC(F)(F)F)ccc1C(=O)Nc1sc2c(c1C#N)CCC(=O)C2 and give its measured growth.
**Result** 97.9

**Query** Name the recorded growth for Cc1ccc(/C(CSc2nnc(-c3c[nH]c4ccccc34)n2-c2ccccc2)=N/O)cc1 .
**Result** -42.4

**Query** So what's the measured growth for this one? CC(C)(C)c1ccc(NCc2cn(-c3ccc(C(=O)O)cc3)nc2-c2ccc(C#N)cc2)cc1
**Result** 41

**Query** Requested field: growth. Item: C=CC(=O)Nc1ccc(C(=O)/C=C/c2ccc(N(C)CCF)cc2)c(O)c1
**Result** 25.6

**Query** For the compound CCN1CCN(Cc2ccc(NC(=O)c3cccc(-n4cc(-c5ccc(NC(C)=O)nc5)nn4)c3)cc2C(F)(F)F)CC1 , what growth is on record?
**Result** 125

**Query** I am curious: what growth value has been reported for CCCS(=O)(=O)c1oc(-c2ccc(F)cc2)nc1S(=O)(=O)c1ccc(F)cc1 ?
**Result** 89.8

**Query** Name the recorded growth for COC(=O)C(Cc1ccc(O)c(O)c1)NC(=O)C(CSC/C=C(\C)CCCC(C)CCCC(C)CCCC(C)C)NC(C)=O (centres undefined) .
**Result** 67.1

**Query** Give the measured growth of C[C@H]1[C@H](C)CC[C@]2(COC(=O)CCC(=O)NCC#CCN3CCNCC3)CC[C@]3(C)C(=CC[C@@H]4[C@@]5(C)CCCNC(C)(C)[C@@H]5CC[C@]43C)[C@H]12 .
**Result** 77.2

**Query** # get_value(readout='growth', item= Nc1nc(-c2ccccc2)cs1 )
**Result** 99.4

**Query** May I ask what growth has been recorded for O=C(Nc1cccc(-c2cn(-c3ccc4oc(=O)ccc4c3)nn2)c1)Nc1cc(C(F)(F)F)cc(C(F)(F)F)c1 ?
**Result** 34.4

----------
System: EKVX NSCLC
Test: NCI-60 one-dose screen, 48 h
Conditions: 10 µM
About 83,000 compounds went through this panel and 20% of them were active in at least one assay; those are over-represented in the sample as a whole. Calls of active or inactive are those of the source. How the source made its calls: active means growth percent below 10; inactive means the rest.
// one of active, inactive, no free text

Solved cases below.
O=C(c1ccc(Cl)cc1)C1[C@H](c2ccccc2Br)[C@@H](c2ccccc2)NC12C(=O)Nc1ccc(Br)cc12 (some centres not stated) ... inactive
C=C[C@@]12CN3CC[C@]1(O)[C@@](C(=O)OC)(CO2)c1[nH]c2ccccc2c1C3 ... inactive

**Query** Returns: the outcome recorded for COc1cc(/C=C/C(=O)c2cc(OC)c(OC)c(OC)c2)ccc1Oc1nc(Nc2ccc(F)cc2)nc(N(C)C)n1 in this assay.
**Result** inactive

**Query** Lab log entry: O=c1oc2ccccc2cc1-c1csc(N=Nc2c(O)[nH]c3ccc(Br)cc23)n1 — outcome as called in the assay?
**Result** inactive

**Query** Name the outcome recorded for O=C(c1ccc(O)cc1)C1[C@H](c2ccc(Br)cc2)[C@@H](c2ccccc2)NC12C(=O)Nc1ccc(Br)cc12 (some centres not stated) in the assay.
**Result** active

**Query** So what was the verdict on Cc1cc(=O)oc2cc(OCCCCOc3ccc(/C=C/C(=O)Nc4ccc(F)c(Cl)c4)cc3)ccc12 in this test?
**Result** inactive

**Query** // outcome(item) with item = N[C@@H](CSSC[C@H](N)C(=O)Nc1ccc(OCC2CCCC2)cc1)C(=O)Nc1ccc(OCC2CCCC2)cc1
**Result** active

**Query** Record lookup: outcome of this test for CN(C)CCNC(=O)OCCCCOc1cc(O)c2c(=O)cc(-c3ccccc3)oc2c1 ?
**Result** inactive

**Query** Entry CC1(C)CC[C@]23CC[C@]4(C)[C@H](CC[C@@H]5[C@@]6(C)CC[C@H](N)C(C)(C)[C@@H]6CC[C@]54C)[C@H]2[C@H]1OC3=O : call = ?
**Result** active
